Molecular target: Trypsin (Bos taurus, UniProt P00760)
Sequence (P00760 24-246): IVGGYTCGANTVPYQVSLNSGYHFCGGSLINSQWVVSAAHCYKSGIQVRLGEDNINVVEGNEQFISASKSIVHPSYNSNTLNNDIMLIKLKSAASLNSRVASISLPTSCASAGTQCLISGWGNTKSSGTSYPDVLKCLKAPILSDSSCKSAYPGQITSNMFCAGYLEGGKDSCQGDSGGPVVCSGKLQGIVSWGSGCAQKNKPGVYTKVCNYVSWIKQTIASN
Experiment: Inhibitory effect on ester-hydrolyzing activity of trypsin (TAMe substrate)
Assay type: biochemical
Settings: in vitro; tosylarginine methyl ester hydrolysis; read-out: ID50 (trypsin)
Where a name gives a salt, the structure may show the parent alone.
This listing pairs compounds with measured IC50.
Report as a plain number; the unit µM is understood.

Previously resolved entries follow.
{"columns": ["Compound", "Unit Label", "IC50"],
 "data": [
  ["CC(Cc1ccc(NC(=N)N)cc1)C(=O)Oc1ccc(Cl)cc1 (stereo not drawn) [compound 52]", "µM", 490],
  ["CC(Cc1cccc(NC(=N)N)c1)C(=O)Oc1cccc2ccccc12 (stereo not drawn) [compound 50]", "µM", 57],
  ["CC(Cc1ccc(N)cc1)C(=O)Oc1ccc(Cl)cc1 (stereo not drawn) [Compound No. 2, hydrochloride]", "µM", 330]
]}

Now take the following compound into account.
[ask] # input compound: CC(Cc1cccc(N)c1)C(=O)Oc1ccc(Cl)cc1 (stereo not drawn) [compound 5] ; wanted: its IC50
[reply] 10

====

Tested on: complement-dependent hemolysis of sensitized erythrocytes
Experiment: Antihemolytic activity (prevention of complement-dependent hemolysis)
Format: cell-based
Conditions: Erythrocyte, 10 min; 10^-4 M
Measured Parameter: inhibition at 100 µM (%)
Report as a plain number; the unit % is understood.

{"columns": ["Molecule", "Measured Parameter", "Unit Label", "Recorded Measurement"],
 "data": [
  ["CCCC(Cc1cccc(NC(=N)N)c1)C(=O)Oc1ccccc1 (stereo not shown)", "inhibition at 100 µM", "%", 30],
  ["CCC(Cc1ccc(NC(=N)N)cc1)C(=O)Oc1ccccc1 (stereo not shown)", "inhibition at 100 µM", "%", 30]
]}

[ask] # input molecule: CCOC(=O)c1ccc(OC(=O)C(CC)Cc2ccc(NC(=N)N)cc2)cc1 (stereo not shown) ; wanted: its inhibition at 100 µM
[reply] 33

[ask] Another molecule: CC(Cc1ccc(NC(=N)N)cc1)C(=O)Oc1cccc2ccccc12 (stereo not shown)
[reply] 49.3

====

Target: Trypsin (Bos taurus)
Experiment: Inhibitory effect on ester-hydrolyzing activity of trypsin (TAMe substrate)
Format: biochemical
Settings: read-out: percent inhibition at 10^-3 M (trypsin)
Structures can show the parent of a compound that is named as a salt.
This listing pairs molecules with measured inhibition at 1000 µM.

{"columns": ["Molecule", "inhibition at 1000 µM"],
 "data": [
  ["CCCC(Cc1cccc(NC(=N)N)c1)C(=O)Oc1ccccc1 (stereo not drawn) [compound 68]", "< 10%"],
  ["Cl.Nc1ccc(CCC(=O)Oc2ccccc2)cc1 [Compound No. 3, hydrochloride]", "< 10%"]
]}

Now take the following molecule into account.
[ask] # input molecule: Cc1ccc(OC(=O)CCc2ccc(N)cc2)cc1 [Compound No. 1, hydrochloride] ; wanted: its inhibition at 1000 µM
[reply] < 10%

====

Target: Human Plasma Kallikrein (Homo sapiens, UniProt P03952)
Sequence (P03952 391-638 limits assumed): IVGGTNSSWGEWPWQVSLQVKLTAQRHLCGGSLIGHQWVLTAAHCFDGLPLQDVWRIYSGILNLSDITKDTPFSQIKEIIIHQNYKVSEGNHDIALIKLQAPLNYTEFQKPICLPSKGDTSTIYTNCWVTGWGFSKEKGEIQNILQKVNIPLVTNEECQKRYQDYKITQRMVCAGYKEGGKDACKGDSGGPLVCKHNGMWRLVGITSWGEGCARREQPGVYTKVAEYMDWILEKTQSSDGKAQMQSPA
Sequence (P03952 20-390 partner limits assumed): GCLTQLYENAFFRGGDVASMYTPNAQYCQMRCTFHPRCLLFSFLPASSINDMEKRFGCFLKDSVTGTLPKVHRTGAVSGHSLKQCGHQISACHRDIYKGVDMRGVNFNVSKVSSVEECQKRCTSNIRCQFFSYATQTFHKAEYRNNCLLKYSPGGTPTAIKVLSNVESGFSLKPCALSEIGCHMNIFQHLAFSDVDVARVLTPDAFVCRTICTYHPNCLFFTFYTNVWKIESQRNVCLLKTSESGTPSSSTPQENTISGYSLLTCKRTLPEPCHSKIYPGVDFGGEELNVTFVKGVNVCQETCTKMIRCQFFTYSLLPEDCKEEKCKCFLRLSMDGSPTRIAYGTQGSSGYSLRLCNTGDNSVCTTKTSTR
Experiment: Inhibitory effect on ester-hydrolyzing activity of human plasma kallikrein (TAMe substrate)
Type: biochemical
Settings: read-out: percent inhibition at 10^-3 M (kallikrein)
Counter-ions that a name gives are not always drawn.
This listing pairs molecules with measured inhibition at 1000 µM.

{"columns": ["Molecule", "Recorded Measurement"],
 "data": [
  ["Cc1ccc(OC(=O)C(C)Cc2ccc(NC(=N)N)cc2)cc1 (stereo not drawn) [Compound No. 45, hydrochloride]", "< 10%"]
]}

[ask] Given the entry Cl.Nc1ccc(CCC(=O)Oc2ccccc2)cc1 [Compound No. 3, hydrochloride] , what inhibition at 1000 µM was observed with Human Plasma Kallikrein (Homo sapiens, UniProt P03952)?
[reply] < 10%

[ask] Another molecule: `CCCCOc1ccc(OC(=O)CCc2ccc(N)cc2)cc1`
[reply] < 10%

====

Molecular target: Human Plasma Kallikrein (Homo sapiens)
Experiment: Inhibitory effect on ester-hydrolyzing activity of human plasma kallikrein (TAMe substrate)
Format: biochemical
Conditions: read-out: percent inhibition at 10^-3 M (kallikrein)
Structures can show the parent of a compound that is named as a salt.
Measured Parameter: inhibition at 1000 µM

{"columns": ["Molecule", "inhibition at 1000 µM"],
 "data": [
  ["CC(Cc1cccc(N)c1)C(=O)Oc1ccc(Cl)cc1 (stereo not drawn)", "< 10%"],
  ["COc1ccc(OC(=O)CCc2ccc(N)cc2)cc1", "< 10%"]
]}

Now take the following molecule into account.
[ask] # input molecule: CCC(Cc1cccc(N)c1)C(=O)Oc1ccc(OC)cc1 (stereo not drawn) [Compound No. 4, hydrochloride] ; wanted: its inhibition at 1000 µM
[reply] < 10%

====

Target: UniProtKB P00760
Experiment: Inhibitory effect on ester-hydrolyzing activity of trypsin (TAMe substrate)
Type: biochemical
Details: in vitro; tosylarginine methyl ester hydrolysis; read-out: ID50 (trypsin)
This listing pairs compounds with measured IC50.
Report as a plain number; the unit µM is understood.

Previously resolved entries follow.
{"columns": ["Compound", "Recorded Measurement"],
 "data": [
  ["CCCCOc1ccc(OC(=O)CCc2ccc(NC(=N)N)cc2)cc1 [compound 71]", 660],
  ["CCOC(=O)c1ccc(OC(=O)CCc2ccc(NC(=N)N)cc2)cc1.Cl [Compound No. 47, hydrochloride]", 78],
  ["CCCCOc1ccc(OC(=O)CCc2ccc(N)cc2)cc1 [compound 33]", 890],
  ["CCC(Cc1cccc(N)c1)C(=O)Oc1cccc2ccccc12 (centres unmarked) [Compound No. 7]", 10]
]}

Now take the following compound into account.
[ask] # input compound: CCOC(=O)c1ccc(OC(=O)C(CC)Cc2ccc(N)cc2)cc1 (centres unmarked) [compound 36] ; wanted: its IC50
[reply] 170
